- Species on record: Rattus norvegicus
- Experiment: Vmax value was determined in homogenates of pooled cecal contents in rats
- Assay type: ADME
Quantity Kind: Vmax (µM/min/g)
Give the value in µM/min/g but do not write µM/min/g after it.

The value of Vmax measured for the compound CC12CCC(=O)C=C1CCC1C2C(O)CC2(C)C1CC[C@]2(O)C(=O)CO[C@@H]1O[C@H](CO)[C@@H](O)[C@H](O)[C@H]1O (some centres undefined) turned out to be 2.6

The value of Vmax measured for the compound CC1CC2C3CCC4=CC(=O)C=CC4(C)[C@@]3(F)C(O)CC2(C)[C@@]1(O)C(=O)CO[C@@H]1O[C@@H](CO)[C@@H](O)[C@H](O)[C@H]1O (some centres undefined) turned out to be 3.9

The value of Vmax measured for the compound CC12CCC(=O)C=C1CCC1C3CC[C@](O)(C(=O)CO[C@H]4O[C@@H](CO)[C@@H](O)[C@H](O)[C@H]4O)C3(C)CC(O)[C@@]12F (some centres undefined) turned out to be 2.4

The value of Vmax measured for the compound CC12CCC(=O)C=C1CCC1C2C(O)CC2(C)C1CC[C@]2(O)C(=O)CO[C@@H]1O[C@@H](CO)[C@@H](O)[C@H](O)[C@H]1O (some centres undefined) turned out to be 20.6

Where do these numbers come from? They come from ChEMBL document CHEMBL1122933.
